Tested on: Staphylococcus aureus MW2 (mecA+)
run-description: normalized DsRed fluorescence (growth of mecA+ strain) (fraction of control range); higher = more growth of mecA+ strain
test-context: compound concentration: 150 uM; cefoxitin: subinhibitory; fluorescent label: DsRed
Assign class by normalized DsRed fluorescence: not lower than 0.9 means class 1; lower than 0.9 means class 0.

Is normalized DsRed fluorescence for CCCCC(CC)COC(=O)C=Cc1ccc(OC)cc1 (stereo not given) at or above 0.9?
class 0

Is normalized DsRed fluorescence for `CN1CCN(C2=Nc3ccccc3Oc3ccc(Cl)cc32)CC1` at or above 0.9?
class 1

Is normalized DsRed fluorescence for O=C(c1ccccc1)c1ccc2n1CCC2C(=O)O (stereo not given) at or above 0.9?
class 0

====

Listed next: entries and their corresponding normalized GFP fluorescence.
Test system: Staphylococcus aureus MW2 delta-mecA (mecA-)
run-description: normalized GFP fluorescence (growth of mecA- strain) (fraction of control range); higher = more growth of mecA- strain
test-context: compound concentration: 150 uM; cefoxitin: subinhibitory; fluorescent label: GFP
// print number alone

Give recorded normalized GFP fluorescence. CC(C)NCC(O)COc1ccc(COCCOC(C)C)cc1 (centres undefined)
0.499

Give recorded normalized GFP fluorescence. O=C(CCCCCCC(=O)Nc1ccccc1)NO [Vorinostat (SAHA)]
0.386

====

Tested on: Staphylococcus aureus MW2 delta-mecA (mecA-)
run-description: normalized GFP fluorescence (growth of mecA- strain) (fraction of control range); higher = more growth of mecA- strain
test-context: compound concentration: 150 uM; cefoxitin: subinhibitory; fluorescent label: GFP
Classes (normalized GFP fluorescence): category 1: < 0.05; category 2: ≥ 0.05 and < 0.3; category 3: ≥ 0.3

molecule: COc1ccc2c3c1O[C@H]1C[C@@H](O)C=C[C@@]31CCN(C)C2
measured-on: Staphylococcus aureus MW2 delta-mecA (mecA-)
cat: category 3

Now turn to the next molecule.
Bin? `Cc1ccc(S(=O)(=O)NC(=O)NN2CCCCCC2)cc1`
category 3

====

Test system: Staphylococcus aureus MW2 delta-mecA (mecA-)
run-description: normalized GFP fluorescence (growth of mecA- strain) (fraction of control range); higher = more growth of mecA- strain
test-context: compound concentration: 150 uM; cefoxitin: subinhibitory; fluorescent label: GFP
property-label: normalized GFP fluorescence
// print number alone

Consider the worked cases shown below.
compound: C1CCN2C[C@@H]3C[C@@H](CN4CCCC[C@@H]34)[C@H]2C1
normalized GFP fluorescence: 0.334
--
compound: C[C@@H]1CCN(C(=O)CC#N)C[C@@H]1N(C)c1ncnc2[nH]ccc12
normalized GFP fluorescence: 0.325
--
compound: O=C(O)Cc1ccccc1Nc1c(Cl)cccc1Cl
normalized GFP fluorescence: 0.0393
--
compound: Cc1cccc(C)c1NC(=O)C(C)N (centres undefined)
normalized GFP fluorescence: 0.842
--
compound: CCOC(=O)O[C@]1(C(=O)COC(=O)CC)CC[C@H]2[C@@H]3CCC4=CC(=O)C=C[C@]4(C)[C@H]3[C@@H](O)C[C@@]21C
normalized GFP fluorescence: 0.129

Give recorded normalized GFP fluorescence. CC(Oc1c(Cl)cccc1Cl)C1=NCCN1 (centres undefined)
0.693

Give recorded normalized GFP fluorescence. `CC(C)(Oc1ccc(CCNC(=O)c2ccc(Cl)cc2)cc1)C(=O)O`
0.407

Give recorded normalized GFP fluorescence. `Nc1ccn([C@@H]2O[C@H](CO)[C@@H](O)[C@@H]2O)c(=O)n1`
0.00362

Give recorded normalized GFP fluorescence. CC(=O)N(CC(O)CN(C(C)=O)c1c(I)c(C(=O)NCC(O)CO)c(I)c(C(=O)NCC(O)CO)c1I)c1c(I)c(C(=O)NCC(O)CO)c(I)c(C(=O)NCC(O)CO)c1I (centres undefined)
0.268

====

Test system: Staphylococcus aureus MW2 delta-mecA (mecA-)
run-description: normalized GFP fluorescence (growth of mecA- strain) (fraction of control range); higher = more growth of mecA- strain
test-context: compound concentration: 150 uM; cefoxitin: subinhibitory; fluorescent label: GFP
property-label: normalized GFP fluorescence
// print number alone

Consider the worked cases shown below.
compound: CC(=O)Oc1cc2c(s1)CCN(C(C(=O)C1CC1)c1ccccc1F)C2 (centres undefined) [Prasugrel (Effient)]
normalized GFP fluorescence: 0.226

compound: CN(C)CCOC(C)(c1ccccc1)c1ccccn1 (centres undefined)
normalized GFP fluorescence: 0.411

compound: Cc1cn([C@@H]2C[C@@H](O)[C@H](CO)O2)c(=O)[nH]c1=O [Telbivudine (Sebivo, Tyzeka)]
normalized GFP fluorescence: 0.205

compound: CC1(C)[C@@H](OC(=O)CCC(=O)O)CC[C@]2(C)[C@H]3C(=O)C=C4[C@@H]5C[C@@](C)(C(=O)O)CC[C@]5(C)CC[C@@]4(C)[C@]3(C)CC[C@@H]12
normalized GFP fluorescence: 0.146

compound: COc1cc(Nc2ncc(F)c(Nc3ccc4c(n3)N(COP(=O)(O)O)C(=O)C(C)(C)O4)n2)cc(OC)c1OC
normalized GFP fluorescence: 0.774

compound: COC(=O)C1=C(C)NC(C)=C(C(=O)OC(C)C)C1c1cccc2nonc12 (centres undefined)
normalized GFP fluorescence: 0.00618

compound: COC(=O)[C@@H]1[C@H]2C[C@H]3c4[nH]c5ccccc5c4CCN3C[C@@H]2CC[C@@H]1O
normalized GFP fluorescence: 0.259

compound: OC[C@@H](O)[C@@H](O)[C@H](O)[C@@H](O)CO [Sorbitol (Glucitol)]
normalized GFP fluorescence: 0.227

Give recorded normalized GFP fluorescence. `CC[N+](C)(C)Cc1ccccc1Br`
0.178

Give recorded normalized GFP fluorescence. Cn1ncnc1[C@H]1c2n[nH]c(=O)c3cc(F)cc(c23)N[C@@H]1c1ccc(F)cc1 [Talazoparib (BMN 673)]
0.42

Give recorded normalized GFP fluorescence. `O=C(CCCN1CC=C(n2c(=O)[nH]c3ccccc32)CC1)c1ccc(F)cc1`
0.664

====

Tested on: Staphylococcus aureus MW2 (mecA+)
run-description: normalized DsRed fluorescence (growth of mecA+ strain) (fraction of control range); higher = more growth of mecA+ strain
test-context: compound concentration: 150 uM; cefoxitin: subinhibitory; fluorescent label: DsRed
property-label: normalized DsRed fluorescence
// print number alone

Consider the worked cases shown below.
compound: C=C(c1ccc(C(=O)O)cc1)c1cc2c(cc1C)C(C)(C)CCC2(C)C [Bexarotene]
normalized DsRed fluorescence: 0.742

compound: CC[C@@]1(O)C(=O)OCc2c1cc1n(c2=O)Cc2cc3c(CN(C)C)c(O)ccc3nc2-1
normalized DsRed fluorescence: 0.763

compound: CCC(CC)[C@H](NC(C)=O)[C@@H]1[C@H](O)[C@@H](C(=O)O)C[C@H]1NC(=N)N [Peramivir Trihydrate]
normalized DsRed fluorescence: 0.659

compound: NS(=O)(=O)Cc1noc2ccccc12 [Zonisamide]
normalized DsRed fluorescence: 0.893

compound: CCCc1nc(C)c2c(O)nc(-c3cc(S(=O)(=O)N4CCN(CC)CC4)ccc3OCC)nn12
normalized DsRed fluorescence: 0.461

compound: CN(C)CCCN1c2ccccc2CCc2ccccc21
normalized DsRed fluorescence: 1.83

Give recorded normalized DsRed fluorescence. `CC#C[C@]1(O)CC[C@H]2[C@@H]3CCC4=CC(=O)CCC4=C3[C@@H](c3ccc(N(C)C)cc3)C[C@@]21C`
0.695

Give recorded normalized DsRed fluorescence. CC(=O)N[C@H]1[C@H]([C@H](O)[C@H](O)CO)OC(C(=O)O)=C[C@@H]1NC(=N)N [Zanamivir (Relenza)]
0.719

Give recorded normalized DsRed fluorescence. Cc1c(O)c(=O)ccn1C [Deferiprone]
0.96

====

Tested on: Staphylococcus aureus MW2 delta-mecA (mecA-)
run-description: normalized GFP fluorescence (growth of mecA- strain) (fraction of control range); higher = more growth of mecA- strain
test-context: compound concentration: 150 uM; cefoxitin: subinhibitory; fluorescent label: GFP
Classes (normalized GFP fluorescence): zone 1 = under 0.2, zone 2 = from 0.2 up to 0.4, zone 3 = 0.4 and over

Bin? CN1C(CCl)Nc2cc(Cl)c(S(N)(=O)=O)cc2S1(=O)=O (stereo unspecified) [Methyclothiazide]
zone 2

Bin? `Cn1c(=O)c2nc[nH]c2n(C)c1=O`
zone 3

Bin? COc1ccc(CC(C)NCC(O)c2ccc(O)c(NC=O)c2)cc1 (stereo unspecified) [Formoterol hemifumarate]
zone 3

Bin? O=C(NCCO[N+](=O)[O-])c1cccnc1 [Nicorandil (Ikorel)]
zone 3

Bin? CN(CCOc1ccc(NS(C)(=O)=O)cc1)CCc1ccc(NS(C)(=O)=O)cc1 [Dofetilide (Tikosyn)]
zone 2

Bin? `O.O.O.O.O=C([O-])CC(O)(CC(=O)[O-])C(=O)[O-].[Li+].[Li+].[Li+]`
zone 1

Bin? Clc1ccc(CCC(Cn2ccnc2)Sc2c(Cl)cccc2Cl)cc1 (stereo unspecified)
zone 1

Bin? CC(=O)N(CC(O)CO)c1c(I)c(C(=O)NCCO)c(I)c(C(=O)NCC(O)CO)c1I (stereo unspecified)
zone 3

Bin? C[C@]12CCC3=C4CCC(=O)C=C4CC[C@H]3[C@@H]1CC[C@@]2(O)CC#N [Dienogest]
zone 2

Bin? `C#CCN[C@@H]1CCc2ccccc21`
zone 3

Bin? `Cc1cc(=O)[nH]c(=S)[nH]1`
zone 3

Bin? N[C@H]1C(O)O[C@H](CO)[C@@H](O)[C@@H]1O (stereo partly specified)
zone 3

Bin? CC1=NN(c2ccccc2)C(=O)C1 [Edaravone (MCI-186)]
zone 3
